molecular target: Histamine H3 receptor (Homo sapiens, UniProt Q9Y5N1); assay: Binding affinity in Nluc-hH3R assessed in HEK293T cells by NanoBRET binding assay; type: cell-based
Sequence (Q9Y5N1 whole entry): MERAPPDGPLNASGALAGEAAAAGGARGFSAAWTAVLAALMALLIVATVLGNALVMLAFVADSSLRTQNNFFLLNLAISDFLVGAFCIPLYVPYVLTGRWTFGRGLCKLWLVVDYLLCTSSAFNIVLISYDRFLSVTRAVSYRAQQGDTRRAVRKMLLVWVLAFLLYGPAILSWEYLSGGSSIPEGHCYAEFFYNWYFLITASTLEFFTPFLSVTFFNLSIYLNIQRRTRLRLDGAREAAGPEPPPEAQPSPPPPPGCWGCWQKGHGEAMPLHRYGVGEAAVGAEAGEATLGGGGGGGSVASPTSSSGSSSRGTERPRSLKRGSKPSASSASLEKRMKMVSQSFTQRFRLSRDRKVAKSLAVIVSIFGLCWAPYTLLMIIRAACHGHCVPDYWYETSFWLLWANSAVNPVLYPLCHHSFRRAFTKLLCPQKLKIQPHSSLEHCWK
measurement kind: Ki (nM)

a. CCN1CCN(C(=O)c2ccc(-c3nc4ccccc4s3)s2)CC1
b. N=C(N)SCCc1cnc[nH]1
Select the item with the higher value of Ki from the options a and b listed. # answer = label of selected item
a
(a: 19.5 nM, b: 5.01 nM)

* * *

target: Histamine H3 receptor (Homo sapiens, UniProt Q9Y5N1); experiment: Displacement of [3H]UR-P1294 from human H3R receptor expressed in HEK293 cells by radioligand competition binding assay; type: cell-based
measurement kind: Ki (nM)

structure	result unit	Ki
CN(C)c1ccc2c(-c3ccc(C(=O)NCCOCCOCCOCCNC(=O)C4CCN(Cc5ccc(OCCCN6CCCCC6)cc5)CC4)cc3C(=O)[O-])c3ccc(=[N+](C)C)cc-3oc2c1	nM	0.302

P. NCCOCCOCCOCCNC(=O)C1CCN(Cc2ccc(OCCCN3CCCCC3)cc2)CC1
Q. O=C(O)C1CCN(Cc2ccc(OCCCN3CCCCC3)cc2)CC1
Select the item with the higher value of Ki from the options P and Q listed. # answer = label of selected item
Q
(Q: 1.58 nM, P: 0.398 nM)

* * *

biological target: Histamine H3 receptor (Homo sapiens); assay: Binding affinity in Nluc-hH3R assessed in HEK293 cells by NanoBRET binding assay; assay type: cell-based
measurement kind: pKd
Reminder that pKd is minus the log10 of a molar concentration.

What value of pKd has been reported for the following molecule? CN(C)c1ccc2c(-c3ccc(C(=O)NCCOCCOCCOCCNC(=O)C4CCN(Cc5ccc(OCCCN6CCCCC6)cc5)CC4)cc3C(=O)[O-])c3ccc(=[N+](C)C)cc-3oc2c1
9.80
